target: CHRM3 (Homo sapiens); construct: purchased Promega (in-house HiBiT-GPCR construct library, NanoBRET); assay: NanoBRET screen HiBiT-CHRM3 in HEK293; assay type: binding; conditions: CHRM3; tracer 0.1μM
Sequence (P20309 whole entry): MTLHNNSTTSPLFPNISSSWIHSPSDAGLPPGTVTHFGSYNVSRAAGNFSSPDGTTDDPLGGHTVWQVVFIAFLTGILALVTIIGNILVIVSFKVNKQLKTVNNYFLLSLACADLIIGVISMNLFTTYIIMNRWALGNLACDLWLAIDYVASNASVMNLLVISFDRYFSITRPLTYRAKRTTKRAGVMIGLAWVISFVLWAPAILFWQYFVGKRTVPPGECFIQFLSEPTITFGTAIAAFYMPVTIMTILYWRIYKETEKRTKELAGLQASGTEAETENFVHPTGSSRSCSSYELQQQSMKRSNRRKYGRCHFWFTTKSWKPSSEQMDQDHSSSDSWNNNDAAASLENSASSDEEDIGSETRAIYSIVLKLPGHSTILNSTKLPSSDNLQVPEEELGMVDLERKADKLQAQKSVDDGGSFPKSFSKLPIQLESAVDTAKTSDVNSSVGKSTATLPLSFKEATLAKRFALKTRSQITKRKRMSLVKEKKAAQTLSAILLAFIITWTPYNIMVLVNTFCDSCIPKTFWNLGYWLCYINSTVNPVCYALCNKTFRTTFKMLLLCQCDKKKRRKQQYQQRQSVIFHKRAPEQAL
Binary call on NanoBRET Fold Response with cut-off 1: strictly below means t, and equality or higher means f.

CC(C)N(CC[C@H](c1ccccc1)c1cc(CCNC(=O)c2ccc(CNC(=O)CCc3ccc4n3[B-](F)(F)[N+]3=C(c5ccc[nH]5)C=CC3=C4)cc2)ccc1O)C(C)C :: f
CCCn1c(=O)c2[nH]c(-c3ccc(OCC(=O)NCCNC(=O)CCOCCNC(=O)c4ccc(CNC(=O)CCc5ccc6n5[B-](F)(F)[N+]5=C(c7ccc[nH]7)C=CC5=C6)cc4)cc3)nc2n(CCC)c1=O :: t

Consider the compound CC(C)N(CC[C@H](c1ccccc1)c1cc(CCNC(=O)CCOCCOCCOCCOCCNC(=O)CCc2ccc3n2[B-](F)(F)[N+]2=C(c4ccc[nH]4)C=CC2=C3)ccc1O)C(C)C . Is its NanoBRET Fold Response strictly less than 1? f

NanoBRET Fold Response under 1? Item: COc1ccccc1N1CCN(CCCCN2C(=O)c3ccc(CNC(=O)CCOCCNC(=O)c4ccc(CNC(=O)CCc5ccc6n5[B-](F)(F)[N+]5=C(c7ccc[nH]7)C=CC5=C6)cc4)cc3C2=O)CC1 f
